Assay: logP determination by HPLC on reversed-phase column (C18), EEC Directive 79/831 Annex V.A8
Assay type: physicochemical
Conditions: pH 2.3, HPLC reversed-phase C18, 43° C., 0.1% aqueous phosphoric acid/acetonitrile
Property: chromatographic logP
No unit in the answer, only the number.

// Cc1ccc(-c2cc(F)ccc2N)cc1F : chromatographic logP value = 2.94

// Cn1cc(C(=O)Nc2ccc(F)cc2-c2ccc(Cl)c(F)c2)c(C(F)F)n1 : chromatographic logP value = 3.05

// Cc1ccc(-c2cc(F)ccc2NC(=O)c2cn(C)nc2C(F)(F)F)cc1F : chromatographic logP value = 3.27

// Cc1ccc(-c2cc(F)ccc2NC(=O)c2cn(C)nc2C(F)F)cc1F : chromatographic logP value = 3.05

// Cn1cc(C(=O)Nc2ccc(F)cc2-c2ccc(Cl)c(F)c2)c(C(F)(F)F)n1 : chromatographic logP value = 3.26
